Measured pIC50 accompanies every entry in the list below.
measured.target: ALK (Homo sapiens, UniProt Q9UM73)
Construct: host or cells: baculovirus expression system
Sequence (Q9UM73 19-1620): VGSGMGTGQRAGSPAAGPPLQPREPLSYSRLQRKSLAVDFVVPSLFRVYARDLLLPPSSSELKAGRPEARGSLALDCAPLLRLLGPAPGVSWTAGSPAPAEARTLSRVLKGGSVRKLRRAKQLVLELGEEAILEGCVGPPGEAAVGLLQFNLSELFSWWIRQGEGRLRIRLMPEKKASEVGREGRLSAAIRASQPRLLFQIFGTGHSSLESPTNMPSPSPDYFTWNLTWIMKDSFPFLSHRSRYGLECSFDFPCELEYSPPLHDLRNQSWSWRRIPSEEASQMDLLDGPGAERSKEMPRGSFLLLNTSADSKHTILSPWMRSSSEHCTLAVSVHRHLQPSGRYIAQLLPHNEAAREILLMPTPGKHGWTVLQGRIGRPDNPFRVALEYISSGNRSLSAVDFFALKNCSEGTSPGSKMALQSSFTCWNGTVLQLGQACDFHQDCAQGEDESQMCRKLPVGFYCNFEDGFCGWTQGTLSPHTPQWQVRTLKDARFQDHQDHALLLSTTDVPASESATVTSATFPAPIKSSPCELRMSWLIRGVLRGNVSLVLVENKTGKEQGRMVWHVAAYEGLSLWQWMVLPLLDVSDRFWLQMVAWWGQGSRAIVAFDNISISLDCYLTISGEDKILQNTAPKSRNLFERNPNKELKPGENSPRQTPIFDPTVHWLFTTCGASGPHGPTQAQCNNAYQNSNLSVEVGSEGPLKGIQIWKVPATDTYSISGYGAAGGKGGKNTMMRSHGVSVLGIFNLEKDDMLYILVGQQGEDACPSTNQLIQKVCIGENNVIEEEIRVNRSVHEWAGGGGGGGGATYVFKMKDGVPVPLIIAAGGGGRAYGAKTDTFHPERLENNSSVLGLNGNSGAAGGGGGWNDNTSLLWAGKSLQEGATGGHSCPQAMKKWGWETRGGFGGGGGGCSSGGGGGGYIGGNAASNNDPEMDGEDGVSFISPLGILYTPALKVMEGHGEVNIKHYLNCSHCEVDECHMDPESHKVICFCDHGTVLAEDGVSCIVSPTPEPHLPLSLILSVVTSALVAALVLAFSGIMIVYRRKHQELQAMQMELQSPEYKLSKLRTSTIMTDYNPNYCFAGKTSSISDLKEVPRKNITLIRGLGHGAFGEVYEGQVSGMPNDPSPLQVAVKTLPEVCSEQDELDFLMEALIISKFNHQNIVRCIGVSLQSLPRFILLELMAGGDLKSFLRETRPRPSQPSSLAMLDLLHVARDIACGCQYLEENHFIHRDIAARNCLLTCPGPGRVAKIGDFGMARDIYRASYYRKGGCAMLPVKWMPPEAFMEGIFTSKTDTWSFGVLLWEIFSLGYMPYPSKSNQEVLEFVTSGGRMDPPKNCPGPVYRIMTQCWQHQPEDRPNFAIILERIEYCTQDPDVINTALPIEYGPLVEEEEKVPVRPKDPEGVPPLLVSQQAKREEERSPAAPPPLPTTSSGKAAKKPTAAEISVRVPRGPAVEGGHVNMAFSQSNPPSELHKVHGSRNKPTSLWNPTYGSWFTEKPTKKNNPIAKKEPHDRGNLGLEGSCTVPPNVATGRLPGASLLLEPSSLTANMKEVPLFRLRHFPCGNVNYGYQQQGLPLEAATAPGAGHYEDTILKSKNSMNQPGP
experiment: ALK Kinase Assay (ELISA/TRF, PLC-γ substrate)
Type: biochemical
condition.details: ALK Kinase Inhibition; read-out: ALK Potency
pIC50: −log10 of the molar value.

Previously resolved entries follow.
molecule=COc1ccccc1-c1ccc2cnc(Nc3ccc(N4CCOCC4)nc3)nn12 obs_value="6.00 to 7.00"
molecule=COc1ccc(CNc2ncc3ccc(-c4ccccc4OC)n3n2)cc1OC obs_value="< 5.00"
molecule=CS(=O)(=O)c1ccc(-c2ccc3cnc(Nc4cccc(N5CCN(CCO)CC5)c4)nn23)cc1 obs_value="6.00 to 7.00"
molecule="CN1CCN(C2CCCN(c3ccc(Nc4ncc5ccc(-c6cccnc6)n5n4)cc3)C2)CC1 (stereo not shown)" obs_value="6.00 to 7.00"
molecule=COc1cc(N2CCC[C@H](C(=O)N3CCN(C)CC3)C2)ccc1Nc1ncc2ccc(-c3ccccc3N(C)S(C)(=O)=O)n2n1 obs_value="> 7.00"
molecule=CN(c1ccccc1-c1ccc2cnc(Nc3ccc(F)c(N4CCOCC4)c3)nn12)S(C)(=O)=O obs_value="6.00 to 7.00"
molecule=C[C@H](O)CN1CCN(c2cccc(Nc3ncc4ccc(-c5ccc(S(C)(=O)=O)cc5)n4n3)c2)CC1 obs_value="6.00 to 7.00"
molecule=Fc1ccc(Nc2ncc3ccc(-c4cccnc4)n3n2)cc1N1CCOCC1 obs_value="5.00 to 6.00"
molecule=COc1cc(N2CCC(N3CCOCC3)CC2)ccc1Nc1ncc2ccc(-c3ccccc3NS(C)(=O)=O)n2n1 obs_value="6.00 to 7.00"
molecule=CC(=O)N1CCc2ccc(Nc3ncc4ccc(-c5cccc(NS(C)(=O)=O)c5)n4n3)cc21 obs_value="5.00 to 6.00"

Input line: Query (molecule): CC(C)(O)CN1CCN(c2cccc(Nc3ncc4ccc(-c5cccc(Cl)c5)n4n3)c2)CC1 ; field requested: pIC50
Output line: 6.00 to 7.00

Input line: Query (molecule): CN1CCN(C2CCCN(c3ccc(Nc4ncc5ccc(-c6cccc(Cl)c6)n5n4)cc3)C2)CC1 (stereo not shown) ; field requested: pIC50
Output line: > 7.00

Input line: Query (molecule): c1cc(-c2ccc3cnc(Nc4ccc(N5CCOCC5)cc4)nn23)ccn1 ; field requested: pIC50
Output line: 5.00 to 6.00

Input line: Query (molecule): CN1CCN(c2ccc(Nc3ncc4ccc(Sc5ccccc5)n4n3)cc2)CC1 ; field requested: pIC50
Output line: > 7.00

Input line: Query (molecule): COc1cc(N2CCC(N3CCN(C)CC3)CC2)ccc1Nc1ncc2ccc(-c3ccccc3OC)n2n1 ; field requested: pIC50
Output line: > 7.00

Input line: Query (molecule): CN1CCN(c2ccc(Nc3ncc4ccc(-c5ccccc5CO)n4n3)cc2)CC1 ; field requested: pIC50
Output line: 6.00 to 7.00

* * *

measured.target: ALK (Homo sapiens)
Construct: host or cells: baculovirus expression system
experiment: ALK Kinase Assay (ELISA/TRF, PLC-γ substrate)
Assay type: biochemical
condition.details: ALK Kinase Inhibition; read-out: ALK Potency
Measured IC50 accompanies every entry in the list below.

Previously resolved entries follow.
compound="CC(C)(C)NS(=O)(=O)c1cccc(-c2ccc3cnc(Nc4ccc(C5CNCCN5)cc4)nn23)c1 (stereo not shown)" quantity_name=IC50 obs_value="100 to 1000 nM"
compound=CN(c1cccc(-c2ccc3cnc(Nc4ccc(N5CCOCC5)cc4)nn23)c1)S(C)(=O)=O quantity_name=IC50 obs_value="1000 to 10000 nM"
compound=COc1cc(N2CCC(N3CCOCC3)CC2)ccc1Nc1ncc2ccc(-c3ccccc3N(CC3CC3)S(C)(=O)=O)n2n1 quantity_name=IC50 obs_value="< 100 nM"

In the following, a different compound is considered.
Input line: Hi! What's the reported IC50 for CN1CCN(Cc2nc3ccc(Nc4ncc5ccc(-c6ccccc6N(C)S(C)(=O)=O)n5n4)cc3[nH]2)CC1 on ALK (Homo sapiens)?
Output line: 100 to 1000 nM

* * *

measured.target: JAK2 (Homo sapiens)
Construct: host or cells: baculovirus expression system
experiment: Recombinant Human JAK2 Kinase Assay (TRF)
Format: biochemical
condition.details: JAK2 kinase inhibition, 0.2 μM ATP; read-out: JAK2 Potency
pIC50: −log10 of the molar value.
Measured pIC50 accompanies every entry in the list below.

Previously resolved entries follow.
compound="CCN1CCCC(CC)(c2ccc(Nc3ncc4ccc(-c5ccccc5OC)n4n3)cc2)C1 (racemic)" quantity_name=pIC50 obs_value="> 7.00"
compound=Cc1nc2cc(Nc3ncc4ccc(-c5cccc(S(C)(=O)=O)c5)n4n3)ccc2o1 quantity_name=pIC50 obs_value="> 7.00"
compound=CN1CCN(c2ccc(Nc3ncc4ccc(-c5cccc(N6CCN(C(=O)OC(C)(C)C)CC6)c5)n4n3)cc2)CC1 quantity_name=pIC50 obs_value="> 7.00"
compound=COc1cc(C2CCN(CC(N)=O)CC2)ccc1Nc1ncc2ccc(-c3ccccc3N(C)S(C)(=O)=O)n2n1 quantity_name=pIC50 obs_value="6.00 to 7.00"
compound=O=S1(=O)CCN(Cc2ccc(Nc3ncc4ccc(-c5cccnc5)n4n3)cc2)CC1 quantity_name=pIC50 obs_value="> 7.00"

Input line: Query (compound): COc1cc(C2CCN(CC(N)=O)CC2)ccc1Nc1ncc2ccc(-c3cccnc3N(C)S(C)(=O)=O)n2n1 ; field requested: pIC50
Output line: 5.00 to 6.00

Input line: Query (compound): COc1cc(C2CCN(CC(C)(C)O)CC2)ccc1Nc1ncc2ccc(-c3ccccc3OC)n2n1 ; field requested: pIC50
Output line: 6.00 to 7.00

* * *

measured.target: ALK (Homo sapiens)
Construct: host or cells: baculovirus expression system
experiment: ALK Kinase Assay (ELISA/TRF, PLC-γ substrate)
Type: biochemical
condition.details: ALK kinase inhibition, 1 μM ATP; read-out: ALK Potency
pIC50: −log10 of the molar value.
Measured pIC50 accompanies every entry in the list below.

Previously resolved entries follow.
molecule=CN(c1ccccc1-c1ccc2cnc(Nc3ccc4c(c3)N(S(C)(=O)=O)CCC4)nn12)S(C)(=O)=O quantity_name=pIC50 obs_value="6.00 to 7.00"
molecule=COc1ccc(-c2ccc3cnc(Nc4cc5c(cc4F)CCC(=O)N5)nn23)cn1 quantity_name=pIC50 obs_value="< 5.00"
molecule="COc1cc2c(cc1Nc1ncc3ccc(-c4ccccc4N(C)S(C)(=O)=O)n3n1)CCCC(N1CCOCC1)C2 (stereo not shown)" quantity_name=pIC50 obs_value="> 7.00"
molecule=COc1ccc(-c2ccc3cnc(Nc4ccc(Cl)c(CN5CCOCC5)c4)nn23)cn1 quantity_name=pIC50 obs_value="< 5.00"
molecule=Cc1cc(-c2ccc3cnc(Nc4ccc(N5CCN(C)CC5)cc4)nn23)cnc1F quantity_name=pIC50 obs_value="6.00 to 7.00"
molecule=COc1ccccc1-c1ccc2cnc(Nc3cccc(C(=O)N4CCN(C)CC4)c3OC)nn12 quantity_name=pIC50 obs_value="6.00 to 7.00"
molecule=CC(C)(C)NS(=O)(=O)c1cccc(-c2ccc3cnc(Nc4ccc(C5CCN(CCO)CC5)cc4)nn23)c1 quantity_name=pIC50 obs_value="6.00 to 7.00"
molecule=CN(c1ccccc1-c1ccc2cnc(OCCN3CCN(c4ccc(N)cc4)CC3)nn12)S(C)(=O)=O quantity_name=pIC50 obs_value="< 5.00"

In the following, a different molecule is considered.
Input line: Query (molecule): COc1cc(N2CCN(C[C@H](O)CO)CC2)ccc1Nc1ncc2ccc(-c3cc(Cl)ccc3OC)n2n1 ; field requested: pIC50
Output line: > 7.00

* * *

measured.target: JAK2 (Homo sapiens, UniProt O60674)
Construct: host or cells: baculovirus expression system
Sequence (O60674 whole entry): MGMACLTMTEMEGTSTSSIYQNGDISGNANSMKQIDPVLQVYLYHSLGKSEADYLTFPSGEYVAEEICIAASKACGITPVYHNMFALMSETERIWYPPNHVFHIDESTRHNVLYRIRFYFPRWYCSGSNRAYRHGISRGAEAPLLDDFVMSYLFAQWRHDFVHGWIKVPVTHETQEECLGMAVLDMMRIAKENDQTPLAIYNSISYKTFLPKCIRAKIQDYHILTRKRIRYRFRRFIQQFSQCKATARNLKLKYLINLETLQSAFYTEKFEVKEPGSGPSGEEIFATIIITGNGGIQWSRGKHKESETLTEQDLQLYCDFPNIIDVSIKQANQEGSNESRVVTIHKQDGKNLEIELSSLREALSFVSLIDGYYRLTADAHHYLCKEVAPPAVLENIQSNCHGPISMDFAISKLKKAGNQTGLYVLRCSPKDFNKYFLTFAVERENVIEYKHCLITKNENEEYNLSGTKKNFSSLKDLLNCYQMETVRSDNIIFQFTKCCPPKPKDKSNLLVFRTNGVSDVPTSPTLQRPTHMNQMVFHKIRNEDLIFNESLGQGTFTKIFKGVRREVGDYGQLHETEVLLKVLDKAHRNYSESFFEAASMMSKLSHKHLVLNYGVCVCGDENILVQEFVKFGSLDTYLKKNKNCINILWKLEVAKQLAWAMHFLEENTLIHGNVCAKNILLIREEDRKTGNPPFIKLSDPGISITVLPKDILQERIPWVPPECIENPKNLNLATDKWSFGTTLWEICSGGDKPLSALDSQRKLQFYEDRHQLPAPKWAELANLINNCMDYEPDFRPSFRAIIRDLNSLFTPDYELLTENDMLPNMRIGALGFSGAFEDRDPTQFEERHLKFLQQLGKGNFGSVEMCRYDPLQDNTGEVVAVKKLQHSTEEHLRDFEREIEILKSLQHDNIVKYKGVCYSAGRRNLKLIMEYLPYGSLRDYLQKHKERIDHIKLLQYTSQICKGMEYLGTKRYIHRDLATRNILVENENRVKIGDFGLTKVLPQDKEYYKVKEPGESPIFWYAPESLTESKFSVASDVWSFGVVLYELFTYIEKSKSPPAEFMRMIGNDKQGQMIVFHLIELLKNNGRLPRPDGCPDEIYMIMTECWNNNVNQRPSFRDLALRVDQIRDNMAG
experiment: Recombinant Human JAK2 Kinase Assay (TRF)
Type: biochemical
condition.details: JAK2 kinase inhibition, 0.2 μM ATP; read-out: JAK2 Potency
quantity.name: IC50

Previously resolved entries follow.
chemical_structure=COc1ccc(-c2ccc3cnc(Nc4ccc(-c5cccnc5)cc4)nn23)cn1 obs_value="< 100 nM"
chemical_structure=CN(c1ccccc1-c1ccc2cnc(Nc3ccc4cn(CCN5CCOCC5)nc4c3)nn12)S(C)(=O)=O obs_value="< 100 nM"
chemical_structure=COCCn1cc(-c2ccc3cnc(Nc4cccc(N5CCN(C)CC5)c4)nn23)cn1 obs_value="< 100 nM"

In the following, a different compound is considered.
Input line: Query (compound): COc1cc(N2CCCN(C3CCN(CCO)CC3)CC2)ccc1Nc1ncc2ccc(-c3ccccc3OC)n2n1 ; field requested: IC50
Output line: 100 to 1000 nM

* * *

measured.target: JAK2 (Homo sapiens)
Construct: host or cells: baculovirus expression system
experiment: Recombinant Human JAK2 Kinase Assay (TRF)
Type: biochemical
condition.details: JAK2 kinase inhibition, 0.2 μM ATP; read-out: JAK2 Potency
pIC50: −log10 of the molar value.
quantity.name: pIC50

Previously resolved entries follow.
compound=CC(=O)Nc1cccc(Nc2ncc3ccc(-c4cccc(NS(C)(=O)=O)c4)n3n2)c1 obs_value="> 7.00"
compound=COc1ccccc1-c1ccc2cnc(Nc3ccc(C4CCN(CC(N)=O)CC4)cc3)nn12 obs_value="> 7.00"
compound=COc1cc(CCN2CCN(C)CC2)ccc1Nc1ncc2ccc(-c3ccccc3OC)n2n1 obs_value="6.00 to 7.00"
compound=COc1ccc(-c2ccc3cnc(Nc4ccc5nc(C(F)(F)F)[nH]c5c4)nn23)cn1 obs_value="> 7.00"
compound=COc1cc(N2CCCN(C[C@H](O)CO)CC2)ccc1Nc1ncc2ccc(-c3ccccc3N(C)S(C)(=O)=O)n2n1 obs_value="6.00 to 7.00"
compound=COc1cc(C2CCN(CC(N)=O)CC2)ccc1Nc1ncc2ccc(-c3ccccc3-n3cccn3)n2n1 obs_value="< 5.00"
compound=COc1cc(N(C)C(=O)CN2CCN(C)CC2)ccc1Nc1ncc2ccc(-c3ccccc3OC)n2n1 obs_value="5.00 to 6.00"
compound=CC(C)(C)NS(=O)(=O)c1cccc(-c2ccc3cnc(Nc4ccc5[nH]ncc5c4)nn23)c1 obs_value="> 7.00"
compound=COc1ccc(-c2ccc3cnc(Nc4ccc(C5CCN(C)CC5)cc4)nn23)cn1 obs_value="> 7.00"
compound=COc1cc(C2CCN(C)CC2)ccc1Nc1ncc2ccc(-c3cccc(S(=O)(=O)NC(C)(C)C)c3)n2n1 obs_value="> 7.00"

Input line: Hi! What's the reported pIC50 for CN1CCN(c2cccc(Nc3ncc4ccc(-c5cnn(C)c5)n4n3)c2)CC1 on JAK2 (Homo sapiens)?
Output line: > 7.00

Input line: Hi! What's the reported pIC50 for CCN(CC)C1CCN(c2ccc(Nc3ncc4ccc(-c5ccccc5N(C)S(C)(=O)=O)n4n3)cc2)CC1 on JAK2 (Homo sapiens)?
Output line: > 7.00

Input line: Hi! What's the reported pIC50 for COc1ccccc1-c1ccc2cnc(Nc3ccc4nc(C(F)(F)F)[nH]c4c3)nn12 on JAK2 (Homo sapiens)?
Output line: > 7.00

Input line: Hi! What's the reported pIC50 for CC(C)(C)NS(=O)(=O)c1cccc(-c2ccc3cnc(Nc4cccc(NS(C)(=O)=O)c4)nn23)c1 on JAK2 (Homo sapiens)?
Output line: > 7.00

The origin of these recorded values is patent US8471005B2.
